# Test system: P. vulgatus RND KO;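 further: active when median AUC fell below 0.1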
# assay-notes: growth AUC normalised to DMSO control (median) (fraction of control); higher = less growth inhibition, active = hit call of the paper;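 active = normalised median growth AUC below 0.1 of DMSO control; inactive = AUC 0.1 or higher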
# test-conditions: 20 µM
Structures can show the parent of a compound that is named as a salt.
Pick one: YES for active, NO for inactive

molecule | qualitative-label
CC(CN(C)C)CN1c2ccccc2CCc2ccccc21 (stereo not drawn) [Trimipramine maleate salt] | NO

Query string: Please state the recorded outcome for this molecule: O=C(O)c1cc(=O)c2ccccc2o1
Result string: NO

Query string: Please state the recorded outcome for this molecule: COC(=O)N/N=C/c1c[n+]([O-])c2ccccc2[n+]1[O-]
Result string: YES

Query string: Please state the recorded outcome for this molecule: CC(=O)c1ccc2c(c1)N(CCCN(C)C)c1ccccc1S2 [Acetopromazine maleate salt]
Result string: NO

Query string: Please state the recorded outcome for this molecule: CCOC(=O)C1=C(C)NC(C)=C(C(=O)OCC)C1c1ccccc1/C=C/C(=O)OC(C)(C)C
Result string: NO

Query string: Please state the recorded outcome for this molecule: CCOC(=O)[C@H](CCc1ccccc1)N[C@@H](C)C(=O)N1C(=O)N(C)C[C@H]1C(=O)O [Imidapril hydrochloride]
Result string: NO

Query string: Please state the recorded outcome for this molecule: NS(=O)(=O)c1cc2c(cc1Cl)NC(Cc1ccccc1)NS2(=O)=O (stereo not drawn) [Benzylhydrochlorothiazide]
Result string: NO

Query string: Please state the recorded outcome for this molecule: NNc1nncc2ccccc12 [Hydralazine hydrochloride]
Result string: NO
